target: Epidermal growth factor receptor (Homo sapiens, UniProt P00533); assay: Inhibition of autophosphorylation of epidermal growth factor receptor prepared from human A431 carcinoma cells.
Sequence (P00533 whole entry): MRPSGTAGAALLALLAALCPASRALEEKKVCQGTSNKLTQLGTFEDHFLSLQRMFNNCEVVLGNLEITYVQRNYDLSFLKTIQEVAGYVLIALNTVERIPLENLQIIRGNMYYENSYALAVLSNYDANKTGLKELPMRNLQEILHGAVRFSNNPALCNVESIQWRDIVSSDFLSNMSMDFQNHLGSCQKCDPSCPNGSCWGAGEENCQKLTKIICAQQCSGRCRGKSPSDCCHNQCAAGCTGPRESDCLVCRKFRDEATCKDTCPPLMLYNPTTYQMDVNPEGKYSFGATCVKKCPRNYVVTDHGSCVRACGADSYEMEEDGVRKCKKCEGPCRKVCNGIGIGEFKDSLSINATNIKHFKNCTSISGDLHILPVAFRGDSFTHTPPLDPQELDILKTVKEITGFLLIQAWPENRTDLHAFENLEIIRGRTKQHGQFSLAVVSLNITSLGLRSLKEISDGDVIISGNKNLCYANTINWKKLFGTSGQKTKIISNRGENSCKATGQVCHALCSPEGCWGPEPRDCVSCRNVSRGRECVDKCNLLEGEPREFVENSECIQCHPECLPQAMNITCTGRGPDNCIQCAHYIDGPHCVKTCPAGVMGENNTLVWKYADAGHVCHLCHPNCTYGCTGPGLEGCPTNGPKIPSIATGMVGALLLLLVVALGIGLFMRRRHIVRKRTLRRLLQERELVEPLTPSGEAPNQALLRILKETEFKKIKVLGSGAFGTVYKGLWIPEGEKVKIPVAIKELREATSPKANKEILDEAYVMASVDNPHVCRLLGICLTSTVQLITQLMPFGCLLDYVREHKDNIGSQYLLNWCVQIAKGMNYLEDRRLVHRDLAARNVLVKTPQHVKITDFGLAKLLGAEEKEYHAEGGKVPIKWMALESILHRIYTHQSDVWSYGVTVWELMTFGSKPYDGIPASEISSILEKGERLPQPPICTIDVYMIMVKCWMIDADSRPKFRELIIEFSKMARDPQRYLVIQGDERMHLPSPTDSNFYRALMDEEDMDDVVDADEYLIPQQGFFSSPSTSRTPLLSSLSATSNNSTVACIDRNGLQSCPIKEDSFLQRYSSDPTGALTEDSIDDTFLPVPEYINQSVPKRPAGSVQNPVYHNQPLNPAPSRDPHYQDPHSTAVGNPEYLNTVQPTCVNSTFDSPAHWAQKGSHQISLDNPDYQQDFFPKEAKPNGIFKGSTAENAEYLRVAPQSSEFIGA
IC50 overview
observed.property: IC50 (µM)

{"columns": ["smiles.entry", "observed.property", "reported.value"],
 "data": [
  ["CN(C)CCn1ncc2cc3c(Nc4cccc(Br)c4)ncnc3cc21", "IC50", 0.262],
  ["Brc1cccc(Nc2ncnc3cc4c(ccn4CCN4CCOCC4)cc23)c1", "IC50", 0.016],
  ["OCCN(CCO)Cc1c[nH]c2cc3ncnc(Nc4cccc(Br)c4)c3cc12", "IC50", 0.135],
  ["CN(C)Cc1c[nH]c2cc3ncnc(Nc4cccc(Br)c4)c3cc12", "IC50", 0.0097],
  ["CN(CC(=O)O)Cc1c[nH]c2cc3ncnc(Nc4cccc(Br)c4)c3cc12", "IC50", 0.584],
  ["Brc1cccc(Nc2ncnc3cc4[nH]cc(CN5CCOCC5)c4cc23)c1", "IC50", 0.0096],
  ["CN(C)CCCn1ccc2cc3c(Nc4cccc(Br)c4)ncnc3cc21", "IC50", 0.23]
]}
